Give measured GI50 for each item. Keep answers brief.
tested on: UO-31; assay: NCI tumour cell line growth inhibition, 48 h
The source made the active and inactive calls. Rule as the data show it: active = GI50 up to about 1.1 µM and inactive = higher.

Which value of GI50 has been reported for COC(=O)CCC1(CCC(=O)OC)CCCCCCC(CCC(=O)OC)(CCC(=O)OC)C(=O)C1=O in the records?
44.4 µM (inactive)

Which value of GI50 has been reported for COc1ccc2nc3c([N+](=O)[O-])ccc(NCCN(C)C)c3c(N)c2c1 in the records?
1.35 µM (inactive)

Which value of GI50 has been reported for COC(=O)c1sc(=O)n(-c2ccccc2)c1SCc1ccccc1 in the records?
> 100 µM (inactive)

Which value of GI50 has been reported for CC(NC(=O)C(N)CC(=O)O)NC(=O)N1CCOCC1 (stereo unspecified) in the records?
> 100 µM (inactive)

Which value of GI50 has been reported for O=C1CCCC[C@H]1[C@H]1CCC[C@@H]([C@H]2CCCCC2=O)C1=O in the records?
> 100 µM (inactive)

Which value of GI50 has been reported for C=CC1=C(C)c2cc3[nH]c(c4c5nc(cc6[nH]c(cc1n2)c(C)c6CC)C=C5C(=O)C4C(=O)OC)C(CCC(=O)OC/C=C(\C)CCCC(C)CCCC(C)CCCC(C)C)C3C.C=CC1=C(C)c2cc3[nH]c(c4c5nc(cc6[nH]c(cc1n2)c(C=O)c6CC)C=C5C(=O)C4C(=O)OC)C(CCC(=O)OC/C=C(\C)CCCC(C)CCCC(C)CCCC(C)C)C3C (stereo unspecified) in the records?
> 100 µM (inactive)

###

tested on: UO-31; experiment: NCI tumour cell line growth inhibition, 48 h
Activity calls are given as the source filed them. Rule as the data show it: active = GI50 up to about 1.1 µM and inactive = higher.
QUANTITY MEASURED: GI50

Which value of GI50 has been reported for O=S(=O)(O)c1cc(/N=N/c2c(O)ccc3ccccc23)cc2c(S(=O)(=O)O)cccc12 in the records?
> 100 µM (inactive)

Which value of GI50 has been reported for Cc1ccc(OCC2CO2)c(Br)c1 (stereo not drawn) in the records?
18.5 µM (inactive)

Which value of GI50 has been reported for N#C/C(=C1/c2cc([N+](=O)[O-])ccc2-c2c1cc([N+](=O)[O-])cc2[N+](=O)[O-])N1CCCCC1 in the records?
> 100 µM (inactive)

Which value of GI50 has been reported for Cc1c2ccncc2c(C)c2c1[nH]c1ccccc12 in the records?
1.95 µM (inactive)

Which value of GI50 has been reported for O=C1N=CN=C2C=CC(Cl)=C(I)C12 (stereo not drawn) in the records?
26.2 µM (inactive)

Which value of GI50 has been reported for CC(=O)/C(=C/NC(=S)Nc1ccc(Cl)c(Cl)c1)C(=O)Nc1ccccc1C in the records?
22.3 µM (inactive)

Which value of GI50 has been reported for COC(=O)C1=C(C)N2CCOC2CC1c1ccccc1 (stereo not drawn) in the records?
> 100 µM (inactive)

Which value of GI50 has been reported for CC(C)=CCc1c(O)c(CC2=C(O)C(CC=C(C)C)(C(=O)C(C)C)C(O)=C(C)C2=O)c(O)c(C(=O)C(C)C)c1O (stereo not drawn) in the records?
7.59 µM (inactive)

###

system: SNB-19; test: NCI tumour cell line growth inhibition, 48 h
The source made the active and inactive calls. No stated cut-off is given here; in the data, active = GI50 up to about 1.1 µM and inactive = higher.
Reply using exactly one outcome from class 1 for active, class 0 for inactive

What classification did OC1C2CN3CCN(C2)CC1(c1ccccc1)C3 (stereo unspecified) end up with in this test?
class 0

What classification did COc1cc(C(=O)C2CC3(CCC2(O)c2cc(OC)c(OC)c(OC)c2)CC(=O)Nc2ccccc2C3=O)cc(OC)c1OC (stereo unspecified) end up with in this test?
class 0

What classification did CC(C)CCCC(C)[C@H]1CCC(C2C[C@@H](O)[C@@H]3CC(O)[C@@H](O)C[C@]3(CO)C2=O)[C@]1(C)CCO (stereo partly specified) end up with in this test?
class 0

What classification did O=C(c1ccccc1)c1cccc(C(=O)c2ccccc2)c1 end up with in this test?
class 0

What classification did C=CCCC1(O)C(O)C(CO)O[C@H](O[C@@]2(CO)OC(CO)C(O)C2O)C1O (stereo partly specified) end up with in this test?
class 0

What classification did O=C1C(=C2CCCC2)CCC1CN1CCCCC1 (stereo unspecified) end up with in this test?
class 0

What classification did N#CC1C(=O)C(=O)N(c2ccccc2)C1=O (stereo unspecified) end up with in this test?
class 0

What classification did CCOP(=O)(OCC)C(Nc1ccc(C(=O)O)cc1)c1ccc(C(Nc2ccc(C(=O)O)cc2)P(=O)(OCC)OCC)cc1 (stereo unspecified) end up with in this test?
class 0

What classification did Cn1c(=O)c2nc3c(=O)n(C)c(=O)n(CC(N)=O)c3nc2n(C)c1=O end up with in this test?
class 0

What classification did CC(C)=CCc1c(O)c(CC2=C(O)C(CC=C(C)C)(C(=O)C(C)C)C(O)=C(C)C2=O)c(O)c(C(=O)C(C)C)c1O (stereo unspecified) end up with in this test?
class 0

What classification did Cc1c2ccncc2c(C)c2c1[nH]c1ccccc12 end up with in this test?
class 1

What classification did CC(=O)[C@H]1CC[C@@H]2[C@]1(C)CC=C1[C@]23C=C[C@]2(C[C@@H](O)CC[C@]12C)C(C(=O)O)C3C(=O)O (stereo partly specified) end up with in this test?
class 0

What classification did O=C(CCCN1CCC(O)(c2ccc(Cl)cc2)CC1)c1ccc(F)cc1 end up with in this test?
class 0

What classification did O=C1O/C(=C/c2ccccc2)C(c2ccccc2)=C1O end up with in this test?
class 0

What classification did CSS(C)(=O)=O end up with in this test?
class 0

What classification did COc1cccc(-c2nc(-c3cnccn3)n(Cc3ccccc3)n2)c1 end up with in this test?
class 0

###

Give measured GI50 for each item. Keep answers brief.
system: K562; test: NCI tumour cell line growth inhibition, 48 h
Active and inactive are the calls of the source. Rule as the data show it: active = GI50 up to about 1.1 µM and inactive = higher.

Which value of GI50 has been reported for CCOc1ccc(N/C(=C(/C(Cl)=C(/Cl)Nc2ccccc2)[N+](=O)[O-])n2nnc3ccccc32)cc1 in the records?
28.8 µM (inactive)

Which value of GI50 has been reported for Cc1c2cc[n+](C)cc2c(C)c2c1[nH]c1ccc(OC(C)(C)C)cc12 in the records?
> 100 µM (inactive)

Which value of GI50 has been reported for COc1cc(OC)cc(Oc2nc3ccc(C(F)(F)F)cc3nc2-c2ccccc2)c1 in the records?
> 100 µM (inactive)

Which value of GI50 has been reported for CCOC(=O)C(C/C=C/CO)N(C)C(=O)OC(C)(C)C (stereo unspecified) in the records?
83.9 µM (inactive)

Which value of GI50 has been reported for CON(C)C(=O)C(Cc1ccccc1)NC(=O)OC(C)(C)C (stereo unspecified) in the records?
> 100 µM (inactive)

Which value of GI50 has been reported for CC(=O)NC1C(OCc2ccccc2)OC(COC(=O)CCCCCCCCCCNc2ccc([N+](=O)[O-])c3[nH]c4ccccc4c(=O)c23)C(O)C1OC(C)C(=O)NC(C)C(=O)NC(CCC(N)=O)C(=O)OCc1ccccc1 (stereo unspecified) in the records?
> 100 µM (inactive)

###

tested on: COLO 205; assay: NCI tumour cell line growth inhibition, 48 h
The source made the active and inactive calls. Rule as the data show it: active = GI50 up to about 1.1 µM and inactive = higher.
QUANTITY MEASURED: GI50

Write down the reported GI50 of OCCN1c2ccccc2Sc2ccccc21 , test system: COLO 205.
> 10 µM (inactive)

Write down the reported GI50 of COC(=O)CCC1(CCC(=O)OC)CCCCCCC(CCC(=O)OC)(CCC(=O)OC)C(=O)C1=O , test system: COLO 205.
54 µM (inactive)

Write down the reported GI50 of CCCNC(=O)NNC(=O)c1c[nH]c2nc(C)ccc2c1=O , test system: COLO 205.
> 100 µM (inactive)

Write down the reported GI50 of CN(C)/N=N/c1ccc(NC=O)cc1 , test system: COLO 205.
> 100 µM (inactive)

Write down the reported GI50 of COC(=O)N/N=C/C(=C/Nc1ccccc1)[N+](=O)[O-] , test system: COLO 205.
> 100 µM (inactive)

Write down the reported GI50 of CC(C)(CO)N1C(=O)c2ccccc2C1(O)c1ccc(Cl)cc1 (stereo not given) , test system: COLO 205.
> 100 µM (inactive)

Write down the reported GI50 of CCCCCCCCCCCCCCCCCc1nc(Cl)nc(Cl)c1Cl , test system: COLO 205.
> 100 µM (inactive)

Write down the reported GI50 of Cc1ccc(C(=O)C2C=C(c3ccc(C)cc3)SC3C=CCC32)cc1 (stereo not given) , test system: COLO 205.
22.1 µM (inactive)

Write down the reported GI50 of CC1(C)C=CC(=O)C(O)C(C)(C)C1=O (stereo not given) , test system: COLO 205.
> 100 µM (inactive)

Write down the reported GI50 of O=C1N=CN=C2C=CC(Cl)=C(I)C12 (stereo not given) , test system: COLO 205.
> 100 µM (inactive)

Measured values drawn from ChEMBL document CHEMBL1201862 for this set.
